// provenance: patent US11154563B2

Items are presented alongside their recorded pIC50.
- tested.system: immunoproteasome LPM2/β1i subunit (Homo sapiens, UniProt P28065+P40306)
- test.details: Caliper-based proteasome enzymatic activity assay, LMP2
- experimental.context: human recombinant immunoproteasome 0.3 nM, FAM-peptide substrate 1 μM, 2 h at rt
pIC50: −log10 of the molar value.

{"columns": ["structure.as.smiles", "tested.system", "pIC50"],
 "data": [
  ["CC(C)C=C(C#N)C(=O)N1CCC[C@@H]1COC(=O)N[C@@H](Cc1coc2ccccc12)B(O)O", "immunoproteasome LPM2/β1i subunit (Homo sapiens, UniProt P28065+P40306)", "< 5.30"],
  ["CC(C)(C=C(C#N)C(=O)N1CCC[C@@H]1COC(=O)N[C@@H](Cc1ccccc1)B(O)O)N1CCC(F)(F)C1", "immunoproteasome LPM2/β1i subunit (Homo sapiens, UniProt P28065+P40306)", "< 5.30"],
  ["CC(C)(C=C(C#N)C(=O)N1CCCC[C@@H]1COC(=O)N[C@@H](Cc1ccccc1)B(O)O)N1CCOCC1", "immunoproteasome LPM2/β1i subunit (Homo sapiens, UniProt P28065+P40306)", "< 5.30"],
  ["C=CC(=O)N1CCCC[C@@H]1COC(=O)N[C@@H](Cc1ccccc1)B(O)O", "immunoproteasome LPM2/β1i subunit (Homo sapiens, UniProt P28065+P40306)", "< 5.30"],
  ["CC(C)(C)/C=C(\\C#N)C(=O)N1CCCC[C@H]1COC(=O)N[C@@H](Cc1ccccc1)B(O)O", "immunoproteasome LPM2/β1i subunit (Homo sapiens, UniProt P28065+P40306)", 5.44],
  ["CC(C)(C=C(C#N)C(=O)N1CCCC[C@@H]1COC(=O)N[C@@H](Cc1ccccc1)B(O)O)N1CCC(F)(F)C1", "immunoproteasome LPM2/β1i subunit (Homo sapiens, UniProt P28065+P40306)", "< 5.30"],
  ["CC(C)(C=C(C#N)C(=O)N1CCC[C@]1(C)COC(=O)N[C@@H](Cc1ccccc1)B(O)O)N1CCC(F)(F)C1", "immunoproteasome LPM2/β1i subunit (Homo sapiens, UniProt P28065+P40306)", "< 5.30"]
]}
